Reported inhibition values follow for various compounds
- Tgt: Voltage-dependent T-type calcium channel subunit alpha-1G (Homo sapiens, UniProt O43497)
- Sequence (O43497 whole entry): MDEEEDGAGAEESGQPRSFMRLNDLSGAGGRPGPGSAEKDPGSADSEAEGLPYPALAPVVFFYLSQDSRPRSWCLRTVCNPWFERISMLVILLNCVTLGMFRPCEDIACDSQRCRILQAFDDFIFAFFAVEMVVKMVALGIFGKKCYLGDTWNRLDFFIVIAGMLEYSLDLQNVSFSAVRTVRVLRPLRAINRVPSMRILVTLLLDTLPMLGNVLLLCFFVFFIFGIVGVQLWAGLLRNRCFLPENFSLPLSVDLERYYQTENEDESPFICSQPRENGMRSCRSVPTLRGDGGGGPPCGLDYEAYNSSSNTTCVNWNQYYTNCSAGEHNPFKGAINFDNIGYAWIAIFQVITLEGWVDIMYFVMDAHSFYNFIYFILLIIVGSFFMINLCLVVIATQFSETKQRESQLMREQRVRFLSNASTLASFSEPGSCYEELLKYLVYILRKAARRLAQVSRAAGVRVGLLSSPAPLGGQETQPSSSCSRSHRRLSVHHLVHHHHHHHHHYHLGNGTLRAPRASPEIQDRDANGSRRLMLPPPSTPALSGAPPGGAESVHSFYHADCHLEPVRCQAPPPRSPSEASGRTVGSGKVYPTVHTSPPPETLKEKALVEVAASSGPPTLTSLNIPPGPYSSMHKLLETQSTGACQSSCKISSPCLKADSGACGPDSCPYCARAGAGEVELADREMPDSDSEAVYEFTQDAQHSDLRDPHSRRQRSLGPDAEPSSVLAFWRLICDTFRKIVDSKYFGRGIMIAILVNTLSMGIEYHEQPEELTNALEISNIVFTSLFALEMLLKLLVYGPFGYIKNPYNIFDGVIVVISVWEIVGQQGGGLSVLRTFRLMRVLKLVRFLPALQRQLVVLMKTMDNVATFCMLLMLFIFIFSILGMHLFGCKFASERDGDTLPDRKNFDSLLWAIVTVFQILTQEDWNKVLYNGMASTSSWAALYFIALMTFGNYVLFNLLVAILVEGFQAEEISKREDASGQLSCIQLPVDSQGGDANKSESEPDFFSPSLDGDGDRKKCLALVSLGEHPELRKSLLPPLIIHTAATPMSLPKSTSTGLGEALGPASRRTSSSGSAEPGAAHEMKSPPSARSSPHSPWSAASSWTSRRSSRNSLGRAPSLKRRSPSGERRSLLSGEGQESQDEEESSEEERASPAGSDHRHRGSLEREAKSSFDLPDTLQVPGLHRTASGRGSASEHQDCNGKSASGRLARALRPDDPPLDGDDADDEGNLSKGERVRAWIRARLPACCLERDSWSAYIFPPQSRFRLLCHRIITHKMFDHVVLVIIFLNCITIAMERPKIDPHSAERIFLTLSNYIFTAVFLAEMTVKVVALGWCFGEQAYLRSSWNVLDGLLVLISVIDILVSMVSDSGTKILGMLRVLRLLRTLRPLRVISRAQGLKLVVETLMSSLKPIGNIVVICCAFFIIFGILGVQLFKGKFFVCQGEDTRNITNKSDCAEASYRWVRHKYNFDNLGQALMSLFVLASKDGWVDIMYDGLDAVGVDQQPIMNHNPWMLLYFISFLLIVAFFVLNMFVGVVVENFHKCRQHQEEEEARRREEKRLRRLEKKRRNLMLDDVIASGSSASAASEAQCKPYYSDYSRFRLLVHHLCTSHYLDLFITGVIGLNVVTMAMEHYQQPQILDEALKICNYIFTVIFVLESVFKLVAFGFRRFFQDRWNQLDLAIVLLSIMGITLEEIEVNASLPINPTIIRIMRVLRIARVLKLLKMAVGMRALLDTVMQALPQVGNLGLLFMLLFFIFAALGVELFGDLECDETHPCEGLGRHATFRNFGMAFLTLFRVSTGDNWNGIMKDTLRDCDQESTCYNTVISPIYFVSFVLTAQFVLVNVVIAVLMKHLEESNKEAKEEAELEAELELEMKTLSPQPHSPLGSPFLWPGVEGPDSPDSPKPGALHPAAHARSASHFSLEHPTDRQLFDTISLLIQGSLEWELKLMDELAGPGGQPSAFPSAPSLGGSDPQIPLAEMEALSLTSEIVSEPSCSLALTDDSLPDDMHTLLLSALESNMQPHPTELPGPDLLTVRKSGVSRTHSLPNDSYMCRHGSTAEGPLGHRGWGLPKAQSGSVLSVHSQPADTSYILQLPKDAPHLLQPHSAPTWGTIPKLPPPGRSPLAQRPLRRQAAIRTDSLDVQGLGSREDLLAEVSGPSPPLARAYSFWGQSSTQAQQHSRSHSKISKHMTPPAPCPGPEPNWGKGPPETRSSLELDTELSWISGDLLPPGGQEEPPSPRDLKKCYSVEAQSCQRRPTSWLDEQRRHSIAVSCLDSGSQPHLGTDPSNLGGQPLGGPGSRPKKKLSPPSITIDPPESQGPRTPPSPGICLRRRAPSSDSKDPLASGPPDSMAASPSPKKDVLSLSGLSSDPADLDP
- Assay notes: Inhibition of T-type alpha1G calcium channel expressed in HEK293 cells assessed as Kcl-induced depolarization at 10 uM
- Assay type: cell-based
Metric name: inhibition

| Compound | Tgt | Result |
| --- | --- | --- |
| Cc1ccc2nc(CN3CCN(C(=O)CC(c4ccccc4)c4ccc(F)cc4)CC3)oc2c1 (centres undefined) | Voltage-dependent T-type calcium channel subunit alpha-1G (Homo sapiens, UniProt O43497) | 42.7% |
| O=C(O)c1coc(CN2CCN(C(=O)CC(c3ccc(F)cc3)c3ccc(Cl)cc3)CC2)n1 (centres undefined) | Voltage-dependent T-type calcium channel subunit alpha-1G (Homo sapiens, UniProt O43497) | 3.62% |
| COC(=O)c1coc(CN2CCN(C(=O)CC(c3ccccc3)c3ccc(OC)cc3)CC2)n1 (centres undefined) | Voltage-dependent T-type calcium channel subunit alpha-1G (Homo sapiens, UniProt O43497) | 22.8% |
| COC(=O)c1coc(CN2CCN(C(=O)CC(c3ccc(OC)cc3)c3cccc(F)c3)CC2)n1 (centres undefined) | Voltage-dependent T-type calcium channel subunit alpha-1G (Homo sapiens, UniProt O43497) | 25.5% |
| O=C(CC(c1ccc(C(F)(F)F)cc1)c1cccc(F)c1)N1CCN(Cc2nc(C(=O)N3CCOCC3)co2)CC1 (centres undefined) | Voltage-dependent T-type calcium channel subunit alpha-1G (Homo sapiens, UniProt O43497) | 53.4% |
| COC(=O)c1coc(CN2CCN(C(=O)CC(c3ccc(F)cc3)c3ccc(F)cc3)CC2)n1 | Voltage-dependent T-type calcium channel subunit alpha-1G (Homo sapiens, UniProt O43497) | 33.5% |
| Cc1ccc2nc(CN3CCN(C(=O)CC(c4ccccc4)c4ccc(Cl)cc4)CC3)oc2c1 (centres undefined) | Voltage-dependent T-type calcium channel subunit alpha-1G (Homo sapiens, UniProt O43497) | 25.9% |
| COc1ccc(C(CC(=O)N2CCN(Cc3nc(CO)co3)CC2)c2cccc(F)c2)cc1 (centres undefined) | Voltage-dependent T-type calcium channel subunit alpha-1G (Homo sapiens, UniProt O43497) | 4.9% |
| O=C(O)c1coc(CN2CCN(C(=O)CC(c3ccc(F)cc3)c3ccc(F)cc3)CC2)n1 | Voltage-dependent T-type calcium channel subunit alpha-1G (Homo sapiens, UniProt O43497) | 3.84% |
| Cc1ccc2nc(CN3CCN(C(=O)CC(c4ccccc4)c4ccc(C(F)(F)F)cc4)CC3)oc2c1 (centres undefined) | Voltage-dependent T-type calcium channel subunit alpha-1G (Homo sapiens, UniProt O43497) | 22.4% |
| COC(=O)c1coc(CN2CCN(C(=O)CC(c3ccc(Cl)cc3)c3cccc(F)c3)CC2)n1 (centres undefined) | Voltage-dependent T-type calcium channel subunit alpha-1G (Homo sapiens, UniProt O43497) | 24.5% |
| O=C(O)c1coc(CN2CCN(C(=O)CC(c3ccc(F)cc3)c3ccc(Br)cc3)CC2)n1 (centres undefined) | Voltage-dependent T-type calcium channel subunit alpha-1G (Homo sapiens, UniProt O43497) | 5.42% |
| COC(=O)c1coc(CN2CCN(C(=O)CC(c3ccc(F)cc3)c3ccc(OC)cc3)CC2)n1 (centres undefined) | Voltage-dependent T-type calcium channel subunit alpha-1G (Homo sapiens, UniProt O43497) | 24.5% |
| Cc1ccc2nc(CN3CCN(C(=O)CC(c4ccccc4)c4ccc(Br)cc4)CC3)oc2c1 (centres undefined) | Voltage-dependent T-type calcium channel subunit alpha-1G (Homo sapiens, UniProt O43497) | 13.6% |
